- protocol text: Oral bioavailability in mice at 20 mg/kg measured at 0.25 to 24 hrs by LC-MS/MS analysis
- condition info: mouse, in vivo

[
  {
    "compound": "COc1cc(OC)c(Cl)c(NC(=O)N(C)c2cc(Nc3ccc(N4CCN(C(=O)C5CCN(c6ccc7c(c6)C(=O)N(C6CCC(=O)NC6=O)C7=O)CC5)CC4)cc3)ncn2)c1Cl (stereo unspecified)",
    "bioavailability": "13.1%"
  }
]

====

- protocol text: Clearance in mice at 3 mg/kg, iv measured at 0.083 to 24 hrs by LC-MS/MS analysis
- condition info: mouse, in vivo
endpoint: clearance (mL/min/kg)

[
  {
    "compound": "COc1cc(OC)c(Cl)c(NC(=O)N(C)c2cc(Nc3ccc(N4CCN(C(=O)C5CCN(c6ccc7c(c6)C(=O)N(C6CCC(=O)NC6=O)C7=O)CC5)CC4)cc3)ncn2)c1Cl (stereo unspecified)",
    "endpoint": "clearance",
    "numeric readout": 121
  }
]

====

- protocol text: Half life in Sprague-Dawley rat at 3 mg/kg, iv measured at 0.083 to 24 hrs by LC-MS/MS analysis
- Type: ADME, organism-based
- condition info: in vivo, time 0.083-24 hrs

[
  {
    "compound": "COc1cc(OC)c(Cl)c(NC(=O)N(C)c2cc(Nc3ccc(N4CCN(C(=O)C5CCN(c6ccc7c(c6)C(=O)N(C6CCC(=O)NC6=O)C7=O)CC5)CC4)cc3)ncn2)c1Cl (stereo unspecified)",
    "result unit": "min",
    "half-life": 58.2
  }
]

====

- protocol text: Cmax in mouse at 20 mg/kg, po measured at 0.25 to 24 hrs by LC-MS/MS analysis
- condition info: in vivo
endpoint: Cmax (ng/mL)

[
  {
    "compound": "COc1cc(OC)c(Cl)c(NC(=O)N(C)c2cc(Nc3ccc(N4CCN(C(=O)C5CCN(c6ccc7c(c6)C(=O)N(C6CCC(=O)NC6=O)C7=O)CC5)CC4)cc3)ncn2)c1Cl (stereo unspecified)",
    "result unit": "ng/mL",
    "numeric readout": 82.1
  }
]
